meta.source: patent US20180305450A1

TESTED_SYSTEM: T1, recombinant biotinylated rat PAR2 extracellular residues 1-75, N-terminal AviTag, C-terminal Flag and poly … (rat, UniProt Q63645 26-75, not fully specified; biotin on the AviTag (enzymatic biotinylation))
T1 construct: range 1-75; not shown: N-terminal AviTag (Avidity LLC); C-terminal Flag and poly Histidine tags
T1 chain (looked up): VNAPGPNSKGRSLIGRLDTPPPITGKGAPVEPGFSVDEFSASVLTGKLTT
MEASUREMENT_NOTES: Biacore SPR 25 C, pH 6.0
Provide the recorded koff for the entries that follow.
API: value field is a number in s⁻¹; no unit string.

Problem: Quickly give me recorded koff for PaB670128 Fab (Fab, V domains shown, Fab; also called ZZ1RUE-A01) VH: EVQLLESGGGLVQPGGSLRLSCAASGFTFSSYAMNWVRQAPGKGLEWVSTISYHGHHISYADSHHHRFTISRDNSKNTLYLQMNSLRAEDTAVYYCARIHHDPMDVWGQGTLVTVSS VL: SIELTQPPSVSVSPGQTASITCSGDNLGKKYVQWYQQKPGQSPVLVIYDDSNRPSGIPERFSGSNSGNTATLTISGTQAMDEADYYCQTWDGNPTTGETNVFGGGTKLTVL
Result: 0.0689

Problem: Quickly give me recorded koff for Par0067 Fab (Fab, V domains shown, Fab; also called ZZ15D2-D02) VH: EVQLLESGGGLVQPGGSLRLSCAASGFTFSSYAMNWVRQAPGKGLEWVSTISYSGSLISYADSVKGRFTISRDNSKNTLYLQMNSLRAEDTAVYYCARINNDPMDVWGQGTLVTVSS VL: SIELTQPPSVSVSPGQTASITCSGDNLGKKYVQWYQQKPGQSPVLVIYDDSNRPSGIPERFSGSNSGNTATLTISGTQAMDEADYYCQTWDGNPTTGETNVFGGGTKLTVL
Result: 0.000544

Problem: Quickly give me recorded koff for PaB670084 Fab (Fab, V domains shown, Fab; also called ZZ1PXA-A05) VH: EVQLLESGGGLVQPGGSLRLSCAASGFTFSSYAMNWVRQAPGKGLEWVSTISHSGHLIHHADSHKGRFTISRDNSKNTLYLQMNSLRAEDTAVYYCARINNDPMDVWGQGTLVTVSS VL: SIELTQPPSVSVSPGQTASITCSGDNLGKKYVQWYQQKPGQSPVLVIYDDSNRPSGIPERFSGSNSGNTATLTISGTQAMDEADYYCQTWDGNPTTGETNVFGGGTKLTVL
Result: 0.0277
